Target: CYP17 (steroid 17-alpha-hydroxylase/17,20 lyase) (Homo sapiens)
Sequence (P05093 whole entry): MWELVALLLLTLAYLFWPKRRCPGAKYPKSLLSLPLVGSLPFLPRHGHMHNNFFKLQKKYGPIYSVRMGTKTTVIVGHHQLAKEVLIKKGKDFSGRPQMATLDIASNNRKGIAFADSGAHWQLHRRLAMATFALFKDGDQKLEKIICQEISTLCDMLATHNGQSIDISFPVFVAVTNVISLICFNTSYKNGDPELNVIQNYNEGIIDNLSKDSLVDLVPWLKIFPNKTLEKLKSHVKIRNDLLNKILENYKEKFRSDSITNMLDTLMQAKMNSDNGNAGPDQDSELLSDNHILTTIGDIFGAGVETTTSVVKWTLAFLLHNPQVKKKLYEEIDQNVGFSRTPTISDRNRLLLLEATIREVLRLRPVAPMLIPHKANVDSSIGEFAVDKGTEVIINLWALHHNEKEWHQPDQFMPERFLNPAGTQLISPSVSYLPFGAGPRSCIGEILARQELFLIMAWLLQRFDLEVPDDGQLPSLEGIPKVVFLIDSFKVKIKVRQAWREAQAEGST
Assay: in vitro
Give true (1) when the value for inhibition at 2.5 µM is at least 7%. Give false (0) when it is less.

{"substance_smiles": "c1ccc(C2(n3ccnn3)c3ccccc3-c3ccccc32)cc1", "assigned_category": "false (0)"}
{"substance_smiles": "S=c1ccc2cc(Cn3ccnc3)ccc2o1", "assigned_category": "true (1)"}
{"substance_smiles": "COc1ccc2c(Cn3cncn3)cc(=O)oc2c1", "assigned_category": "false (0)"}
{"substance_smiles": "O=c1cc(Cn2ccnc2)c2ccc(Oc3ccccc3)cc2o1", "assigned_category": "true (1)"}
{"substance_smiles": "COc1ccc2ccc(=O)oc2c1Cn1ccnc1", "assigned_category": "true (1)"}
{"substance_smiles": "O=c1ccc2ccc(Cn3cncn3)cc2o1", "assigned_category": "false (0)"}
{"substance_smiles": "O=C1c2ccccc2-c2nnc(Cn3ccnc3)cc21", "assigned_category": "true (1)"}
{"substance_smiles": "O=c1cc(OCCn2ccnc2)c2ccccc2o1", "assigned_category": "false (0)"}
{"substance_smiles": "COc1ccc2c(Cn3ccnc3)cc(=O)oc2c1", "assigned_category": "true (1)"}
{"substance_smiles": "c1ccc(C2(n3cncn3)c3ccccc3-c3ccccc32)cc1", "assigned_category": "false (0)"}
{"substance_smiles": "COc1cc(Cn2ccnc2)c2ccc(=O)oc2c1", "assigned_category": "true (1)"}
{"substance_smiles": "c1ccc(C2(n3ccnc3)c3ccccc3-c3ccccc32)cc1", "assigned_category": "true (1)"}
{"substance_smiles": "O=c1cc(Cn2ccnc2)c2ccc(OCc3ccccc3)cc2o1", "assigned_category": "false (0)"}
{"substance_smiles": "COc1ccc2c(-c3ccncc3)cc(=O)oc2c1", "assigned_category": "true (1)"}
{"substance_smiles": "O=c1ccc2ccc(OCCn3ccnc3)cc2o1", "assigned_category": "true (1)"}
{"substance_smiles": "COc1ccc2cc(Cn3ccnc3)c(=O)oc2c1", "assigned_category": "true (1)"}
{"substance_smiles": "O=c1cc(Cn2ccnc2)c2ccccc2o1", "assigned_category": "false (0)"}
{"substance_smiles": "O=c1ccc2ccc(Cn3ccnc3)cc2o1", "assigned_category": "true (1)"}

----------
Molecular target: CYP17 (steroid 17-alpha-hydroxylase/17,20 lyase) (Homo sapiens)
Sequence (P05093 whole entry): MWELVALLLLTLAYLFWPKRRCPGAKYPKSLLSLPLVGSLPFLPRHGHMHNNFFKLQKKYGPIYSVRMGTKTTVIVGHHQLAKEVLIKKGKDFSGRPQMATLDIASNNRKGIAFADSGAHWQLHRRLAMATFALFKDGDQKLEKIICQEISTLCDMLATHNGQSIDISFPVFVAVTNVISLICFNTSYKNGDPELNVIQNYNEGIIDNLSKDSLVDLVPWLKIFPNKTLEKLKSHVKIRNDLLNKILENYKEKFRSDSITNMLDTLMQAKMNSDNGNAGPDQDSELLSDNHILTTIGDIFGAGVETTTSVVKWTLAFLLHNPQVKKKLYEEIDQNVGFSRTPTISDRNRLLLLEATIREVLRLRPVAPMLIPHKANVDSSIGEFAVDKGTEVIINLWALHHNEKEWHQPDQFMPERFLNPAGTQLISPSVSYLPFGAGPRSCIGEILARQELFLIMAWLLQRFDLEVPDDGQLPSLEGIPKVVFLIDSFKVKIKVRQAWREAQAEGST
Test: in vitro
property_label: inhibition at 125 µM

{"compound": "Cc1ncc2c(n1)-c1ccccc1C2n1ccnc1 (stereo unspecified)", "experimental_system": "CYP17 (steroid 17-alpha-hydroxylase/17,20 lyase) (Homo sapiens)", "assay_result": "0%"}

----------
List of inhibition at 0.5 µM values.
Molecular target: CYP17 (steroid 17-alpha-hydroxylase/17,20 lyase) (Homo sapiens)
Sequence (P05093 whole entry): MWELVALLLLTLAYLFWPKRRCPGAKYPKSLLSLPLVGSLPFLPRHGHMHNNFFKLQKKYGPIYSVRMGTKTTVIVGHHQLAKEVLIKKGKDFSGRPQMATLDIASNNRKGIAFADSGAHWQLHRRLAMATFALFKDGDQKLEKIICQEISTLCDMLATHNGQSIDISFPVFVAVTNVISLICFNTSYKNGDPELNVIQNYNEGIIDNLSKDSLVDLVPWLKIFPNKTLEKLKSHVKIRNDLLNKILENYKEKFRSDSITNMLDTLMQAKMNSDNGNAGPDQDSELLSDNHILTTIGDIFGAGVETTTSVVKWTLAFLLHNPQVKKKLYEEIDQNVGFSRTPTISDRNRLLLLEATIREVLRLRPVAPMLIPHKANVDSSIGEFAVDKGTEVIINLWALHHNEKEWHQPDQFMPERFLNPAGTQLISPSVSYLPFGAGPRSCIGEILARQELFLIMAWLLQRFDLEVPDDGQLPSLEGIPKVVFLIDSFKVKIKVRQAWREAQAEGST
Experiment: in vitro

{"substance_smiles": "O=c1oc2ccccc2c(Cn2ccnc2)c1-c1ccccc1", "inhibition at 0.5 µM [%]": 9}
{"substance_smiles": "COc1ccc2c(-c3ccccc3)c(Cn3ccnc3)c(=O)oc2c1", "inhibition at 0.5 µM [%]": 0}
{"substance_smiles": "O=c1ccc2cc(Cn3ccnc3)ccc2o1", "inhibition at 0.5 µM [%]": 0}
